Tested on: MS2 coat protein
Experiment: apparent Kd, MS2 coat protein; higher = weaker binding; RNA-MaP array
Conditions: ligand present: flavin mononucleotide; designed as: ON switch for flavin mononucleotide
recorded.endpoint: apparent Kd (nM)
Enter your answer as a number in nM; do not include the unit.

Reference set (3 entries):
>  <chain.sequence>
CAAACCAACUAGUAAAACAACAUGAGGAUCACCCAUGUAAGAGAGGAUAUUGAAAUCGAAAGCAACAAGAAGGCUCACCAUGUA

>  <apparent Kd [nM]>
15.8

$$$$
>  <chain.sequence>
GAGGAGUAGUAGUCCGACACAUGAGGAUCACCCAUGUUAUGGAGAAGGCCGGAUCUGAGUAGAGCGGAGGAUAUCCUGAAUUAA

>  <apparent Kd [nM]>
19.8

$$$$
>  <chain.sequence>
CGUAUUGCUCGUUAGGAUAUCCAAUCUGAAACAUGAGGAUCACCCAUGUAGCCAGCAUCACAUGAGGAGAAGGAACAAGAUAAACG

>  <apparent Kd [nM]>
8.89

$$$$

Alright, here's another sequence for you.
Tell me apparent Kd of "GUGCAGUUAUUAGGAUAUAAGACAUGGGACAUGAGGAUCACCCAUGUCGUAAGAAAUACCGUUGAUUAGAAGGAAUUCCGGCAC" when tested on MS2 coat protein.
283
